- Test system: DLD1
- ASSAY COMMENT: TCF/Wnt firefly luciferase reporter signal relative to plate median (fraction of plate median); higher = higher Wnt reporter signal
- CONDITION NOTES: 5 µM; treatment time 24 h; reporter: 7TFP
PROPERTY MEASURED: TCF/Wnt firefly luciferase reporter signal
I'd appreciate a reply containing only the number, no unit.

>>> observed("CC1CCC(C(C)C)C(O)C1 (centres undefined)")
1.09
>>> observed("Cc1oc(=O)c2c(O)cccc2c1CO [8-Hydroxy-4-hydroxymethyl-3-methyl-isocumarin]")
1.01
>>> observed("CC[C@@H](C)c1cc(=O)c2c(CO)cc3c(c2o1)C(=O)c1c(O)cccc1C3=O")
1.29
>>> observed("C[C@H](CCC(=O)O)[C@H]1CC[C@H]2[C@@H]3[C@@H](O)C[C@@H]4C[C@H](O)CC[C@]4(C)[C@H]3CC[C@]12C")
0.89
>>> observed("CC(=O)[C@H]1CC[C@H]2[C@@H]3C[C@H](C)C4=CC(=O)CC[C@]4(C)[C@H]3[C@@H](O)C[C@]12C")
1.01
>>> observed("COc1ccc2c(c1)OC[C@@H](Cc1ccc(OC)c(OC)c1)[C@H]2O")
0.944

Query: Look at this compound and give its reported TCF/Wnt firefly luciferase reporter signal. CN1CCN(C2=Nc3cc(Cl)ccc3Nc3ccccc32)CC1
Reply: 0.916

Query: Look at this compound and give its reported TCF/Wnt firefly luciferase reporter signal. COC(=O)c1c(C)cc(OC(=O)c2c(C)cc(O)c(C=O)c2O)c(C)c1O
Reply: 1

Query: Look at this compound and give its reported TCF/Wnt firefly luciferase reporter signal. O=C(O)CN(CCN(CC(=O)O)CC(=O)O)CC(=O)O.[Na+].[Na+].[Na+]
Reply: 1.02
